# Test system: multidrug-resistant Pseudomonas aeruginosa MDR-PA 18-1774,18-202
# Experimental protocol: MIC by microbroth dilution method, MDR-PA strains
# Type: cell-based
# Experimental parameters: strain MDR-PA 18-202; 37° C., 20-22 hours

Molecule: Cc1nnc(SCC2=C(C(=O)O)N3C(=O)[C@@H](NC(=O)Cn4cnnn4)[C@H]3SC2)s1 [Cefazolin sodium, cefazolin sodium]
Minimum bacteriostatic concentration: 128 µg/mL
--
Molecule: C/C=C/COC(=O)c1cc(O)c2c(c1)C(=O)c1cccc(O)c1C2=O [Crotonyl alcohol cassic acid ester]
Minimum bacteriostatic concentration: >128 µg/mL
--
Molecule: O=C(O)c1cc(O)c2c(c1)C(=O)c1cccc(O)c1C2=O [Cassic acid]
Minimum bacteriostatic concentration: >128 µg/mL
--
Molecule: CO/N=C(\C(=O)N[C@@H]1C(=O)N2C(C(=O)O)=C(CSc3nc(=O)c(=O)[nH]n3C)CS[C@H]12)c1csc(N)n1 [Ceftriaxone sodium, ceftriaxone sodium]
Minimum bacteriostatic concentration: 16 µg/mL
--
Molecule: CC=CCO [Crotonyl alcohol, 2-butenol]
Minimum bacteriostatic concentration: >128 µg/mL

###

# Test system: methicillin-resistant Staphylococcus aureus MRSA 18-222, 18-575
# Experimental protocol: MIC by microbroth dilution method, MRSA strains
# Type: cell-based
# Experimental parameters: strain MRSA 18-575; 37° C., 20-22 hours
Recorded Minimum bacteriostatic concentration for the following compounds

Compound: C/C=C/COC(=O)c1cc(O)c2c(c1)C(=O)c1cccc(O)c1C2=O [Crotonyl alcohol cassic acid ester]
Tested target: methicillin-resistant Staphylococcus aureus MRSA 18-222, 18-575
Minimum bacteriostatic concentration: 4 µg/mL
//
Compound: Cc1nnc(SCC2=C(C(=O)O)N3C(=O)[C@@H](NC(=O)Cn4cnnn4)[C@H]3SC2)s1 [Cefazolin sodium, cefazolin sodium]
Tested target: methicillin-resistant Staphylococcus aureus MRSA 18-222, 18-575
Minimum bacteriostatic concentration: >128 µg/mL
//
Compound: O=C(O)c1cc(O)c2c(c1)C(=O)c1cccc(O)c1C2=O [Cassic acid]
Tested target: methicillin-resistant Staphylococcus aureus MRSA 18-222, 18-575
Minimum bacteriostatic concentration: >128 µg/mL
//
Compound: CO/N=C(\C(=O)N[C@@H]1C(=O)N2C(C(=O)O)=C(CSc3nc(=O)c(=O)[nH]n3C)CS[C@H]12)c1csc(N)n1 [Ceftriaxone sodium, ceftriaxone sodium]
Tested target: methicillin-resistant Staphylococcus aureus MRSA 18-222, 18-575
Minimum bacteriostatic concentration: >128 µg/mL
//
Compound: CC=CCO [Crotonyl alcohol, 2-butenol]
Tested target: methicillin-resistant Staphylococcus aureus MRSA 18-222, 18-575
Minimum bacteriostatic concentration: >128 µg/mL

###

# System: vancomycin-resistant enterococci VRE 18-80,18-94
# Experimental protocol: MIC by microbroth dilution method, VRE strains
# Format: cell-based
# Experimental parameters: strain VRE 18-80; 37° C., 20-22 hours

Molecule: CC=CCO
Value modifier: >
Minimum bacteriostatic concentration / µg/mL: 128
//
Molecule: CO/N=C(\C(=O)N[C@@H]1C(=O)N2C(C(=O)O)=C(CSc3nc(=O)c(=O)[nH]n3C)CS[C@H]12)c1csc(N)n1 [Ceftriaxone sodium, ceftriaxone sodium]
Value modifier: =
Minimum bacteriostatic concentration / µg/mL: 8
//
Molecule: O=C(O)c1cc(O)c2c(c1)C(=O)c1cccc(O)c1C2=O
Value modifier: >
Minimum bacteriostatic concentration / µg/mL: 128
//
Molecule: Cc1nnc(SCC2=C(C(=O)O)N3C(=O)[C@@H](NC(=O)Cn4cnnn4)[C@H]3SC2)s1 [Cefazolin sodium, cefazolin sodium]
Value modifier: =
Minimum bacteriostatic concentration / µg/mL: 32
//
Molecule: C/C=C/COC(=O)c1cc(O)c2c(c1)C(=O)c1cccc(O)c1C2=O
Value modifier: >
Minimum bacteriostatic concentration / µg/mL: 128
